B1: FBXO3 (parent)
chain: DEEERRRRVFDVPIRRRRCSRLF

Variants of: B1
assay overview: protein stability index of a GFP-peptide fusion (GPS, HEK-293T) (PSI 1-6); higher = more stable;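 further: lentivirally expressed fusions sorted by FACS into six bins by GFP to DsRed ratio, PSI derived from sequencing read proportions per bin multiplied by bin number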
stated conditions: c terminus: native
Binned protein stability index; ranges: bin 1 (below 2), bin 2 (2 to below 3), bin 3 (3 or more)

- mutation code: "C19Y"
  category: "bin 3"

Lab note: which band did R16L land in?
bin 2

Check F10W too.
bin 2
